# System: OVCAR-3 ovarian
# METHOD_DESCRIPTION: NCI-60 one-dose screen, 48 h (100 = growth as untreated, 0 = no growth, -100 = all killed)
# MEASUREMENT_SETUP: 10 µM unless noted
Compounds without any hit were thinned out: in the full panel of roughly 83,000, 20% have a hit.
List of growth values.
Entry rule: numbers only, all in %.

Illustrative cases are given below, each with its answer.
The recorded growth with OVCAR-3 ovarian for Cc1ccc(Nc2ccc(Nc3ccc(C)cc3S(=O)(=O)O)c3c2C(=O)c2ccccc2C3=O)c(S(=O)(=O)O)c1 was 95.5

The recorded growth with OVCAR-3 ovarian for NS(=O)(=O)c1cnccc1-n1ccc(=O)c(S(N)(=O)=O)c1 was 93.3

The recorded growth with OVCAR-3 ovarian for Cc1ccc(S(=O)(=O)Nc2sccc2-c2nc(-c3ccccc3)no2)cc1 was 92.2

The recorded growth with OVCAR-3 ovarian for Clc1ccc2c(NCCCN3CCN(c4nc(-n5ccnc5)nc5ccccc45)CC3)ccnc2c1 was 90.5

Then there is this compound:
The recorded growth with OVCAR-3 ovarian for COc1ccc(/C=C2\COc3ccc(O)cc3C2=O)c(OC)c1 was 27

----------
# Tested on: NCI-H322M lung
# METHOD_DESCRIPTION: NCI-60 one-dose screen, 48 h
# MEASUREMENT_SETUP: 10 µM unless noted
# Procedure: Growth inhibition of the NCI-H322M human Non-Small Cell Lung tumor cell line is measured as a screen for anti-cancer activity. Cells are grown in 96 well plates and exposed to the test compound for 48 hours. Compounds are tested at a single concentration, which is 10^-5 M for most compounds. The reported endpoint is percent growth (GI% or GIPRCNT), where numbers from 0 - 100% represent growth inhibition, and numbers from -100% - 0 represent cell death. […]
The panel holds about 83,000 compounds, 20% with a hit somewhere; the sample as a whole holds those more often. Active and inactive are the calls of the source. Rule for the calls: active = growth percent below 10; inactive = the rest.
Choose one outcome from this list and give only that: active, inactive

Recorded results for 2 compounds are shown here.
Prompt: Hi, sorry to bother you, what did the test record for N=C(N)c1ccc(-c2ccc(/C=C/c3ccccc3)s2)cc1 ?
Completion: active

Prompt: Hi, sorry to bother you, what did the test record for Nc1c(-c2nc3ccccc3c(=O)[nH]2)nnn1-c1ccc(Cl)cc1 ?
Completion: inactive

---
Prompt: Hi, sorry to bother you, what did the test record for CN1C[C@@H](c2ccc(Cl)cc2)[C@]2(NC(=S)N(c3ccc(F)c(Cl)c3)C2=O)[C@@]12C(=O)NC1C=CC(Cl)=C[C@H]12 (some centres undefined) ?
Completion: inactive

Prompt: Hi, sorry to bother you, what did the test record for CCOC(=O)C1C(=O)C=C(c2cnccn2)CC1c1ccc(OC)c(OC)c1 (centres undefined) ?
Completion: inactive

Prompt: Hi, sorry to bother you, what did the test record for N#C/C(=C\c1ccc(Br)cc1)n1nnc2ccccc21 ?
Completion: active

----------
# System: MALME-3M melanoma
# METHOD_DESCRIPTION: NCI-60 one-dose screen, 48 h (100 = growth as untreated, 0 = no growth, -100 = all killed)
# MEASUREMENT_SETUP: 10 µM unless noted
Compounds without any hit were thinned out: in the full panel of roughly 83,000, 20% have a hit.
READOUT_LABEL: growth (%)
Entry rule: numbers only, all in %.

Illustrative cases are given below, each with its answer.
get_value(item= NS(=O)(=O)c1cnccc1-n1ccc(=O)c(S(N)(=O)=O)c1 , readout=growth) returns 50.1

get_value(item= COc1cccc(/C=C2\COc3ccc(O)cc3C2=O)c1OC , readout=growth) returns 73.9

get_value(item= Cn1cc(Nc2nccc(-c3ccc(N4CCCC4)c(C#N)c3)n2)cn1 , readout=growth) returns 54.4

get_value(item= N#C/C=C(\c1ccc([N+](=O)[O-])cc1)n1nnc2cc(Cl)c(Cl)cc21 , readout=growth) returns 40.7

get_value(item= Cc1c2c(cn1Cc1ccccc1)CCc1cn[nH]c1-2 , readout=growth) returns 105

get_value(item= CNC(=O)c1cc(Oc2ccc3nc(NC(=O)Nc4cc(C(F)(F)F)cc(C(F)(F)F)c4)sc3c2)ccn1 , readout=growth) returns -57.5

---
get_value(item= CS(=O)(=O)c1ccc(-c2nc3cc(Cl)ccc3n2CC(=O)NO)cc1 , readout=growth) returns 108

get_value(item= COc1cc2ccccc2cc1C(=O)NC(=S)Nc1ccc(-c2nc3ccccc3[nH]2)cc1 , readout=growth) returns 48

get_value(item= O=C1C2=C(CCN(Cc3ccccc3)C2)N2CCN=C2N1Cc1ccc(F)cc1F , readout=growth) returns 41.5

get_value(item= CCCCCCCC/C=C/CCCCCCCC1=NCC[N+]1(CCO)CCO , readout=growth) returns 96.2

get_value(item= c1ccc2c(c1)ncn2-c1nc2ccccc2n2c1nc1ccccc12 , readout=growth) returns 128

get_value(item= C=C(CNCCc1ccc(O)cc1)[C@@H]1CC[C@]2(COC3CCCCO3)CC[C@]3(C)[C@H](CC[C@@H]4[C@@]5(C)CCC(NCCO)C(C)(C)[C@@H]5CC[C@]43C)[C@@H]12 (some centres undefined) , readout=growth) returns -86.4

get_value(item= Clc1ccc(/C=C/c2nc(Nc3ccc(Cl)cc3)c3ccccc3n2)cc1 , readout=growth) returns 105

----------
# Tested on: IGROV1 ovarian
# METHOD_DESCRIPTION: NCI-60 one-dose screen, 48 h (100 = growth as untreated, 0 = no growth, -100 = all killed)
# MEASUREMENT_SETUP: 10 µM unless noted
About 83,000 compounds went through this panel and 20% of them were active in at least one assay; those are over-represented in the sample as a whole.
growth vs 80%: at or above is Met, below is Not met.

Prompt: Given the entry CN1CCC(=C2c3ccccc3C=Cc3ccccc32)CC1 , answer whether its growth meets or surpasses 80%.
Completion: Not met

Prompt: Given the entry Fc1ccc(Nc2ccc3cc(OCCCN4CCOCC4)ccc3n2)cc1F , answer whether its growth meets or surpasses 80%.
Completion: Not met

Prompt: Given the entry c1ccc2[nH]c(SSc3nc4ncncc4[nH]3)nc2c1 , answer whether its growth meets or surpasses 80%.
Completion: Not met

Prompt: Given the entry CCOC(=O)c1nnn(-c2ccccc2)c1C1=CN(C)CCC1 , answer whether its growth meets or surpasses 80%.
Completion: Met

Now let's try a different one.
Prompt: Given the entry CC(C)(C)OC(=O)N1Cc2cc3ccccc3nc2C1CO (stereo unspecified) , answer whether its growth meets or surpasses 80%.
Completion: Met

----------
List of growth values.
# Tested on: HS 578T breast
# METHOD_DESCRIPTION: NCI-60 one-dose screen, 48 h (100 = growth as untreated, 0 = no growth, -100 = all killed)
# MEASUREMENT_SETUP: 10 µM unless noted
Compounds without any hit were thinned out: in the full panel of roughly 83,000, 20% have a hit.
Entry rule: numbers only, all in %.

Illustrative cases are given below, each with its answer.
get_value(item= COc1cccc(CCC2CCCN(c3cc(C)nc(N)n3)C2)c1 (stereo not given) , readout=growth) returns 56.8

get_value(item= C=C1C(=O)O[C@H]2[C@H]1CC/C(COC(=O)/C=C/C(=O)NCc1ccc(Cn3c(=O)sn(-c4ccccc4)c3=O)cc1)=C\CC[C@@]1(C)O[C@@H]21 , readout=growth) returns 77.8

get_value(item= CCN(CC)CCOC(=O)Nc1ccccc1Cl , readout=growth) returns 109

---
get_value(item= Cc1nn(Cc2ccccc2)cc1C(=O)Nc1sc2c(c1C(N)=O)CCC(=O)C2 , readout=growth) returns 28.8

get_value(item= CCCCCCNc1cc(C)nc2ccc(OC)cc12 , readout=growth) returns 87

get_value(item= COc1ccc(N(C)c2nc(Cl)nc3cnn(C)c23)cc1 , readout=growth) returns 37.8

get_value(item= C[C@@H]1C(=O)N(C[C@H](Cc2ccccc2)NC(=O)OCc2ccccc2)[C@]1(Cc1ccccc1)C(=O)OC(C)(C)C , readout=growth) returns 79.4

get_value(item= COc1cc2c(c(OC)c1OC)C(=O)/C(=C/c1cc(C)c(O)c(C)c1)S2 , readout=growth) returns 29.4

get_value(item= O=c1[nH]c(NCc2nnnn2-c2ccc(Br)cc2)nc2sc3c(c12)CCCC3 , readout=growth) returns 100

get_value(item= N#Cc1c(N)nc2c(nnn2-c2cccc(Br)c2)c1N , readout=growth) returns 68.8

get_value(item= CCOC(=O)c1c(C)nc2c(c1N)/C(=C/c1ccc(OC)cc1)C(=O)N2Cc1ccc(F)cc1 , readout=growth) returns 54.7

----------
List of growth values.
# System: NCI-H460 lung
# METHOD_DESCRIPTION: NCI-60 one-dose screen, 48 h (100 = growth as untreated, 0 = no growth, -100 = all killed)
# MEASUREMENT_SETUP: 10 µM unless noted
Compounds without any hit were thinned out: in the full panel of roughly 83,000, 20% have a hit.
Entry rule: numbers only, all in %.

Illustrative cases are given below, each with its answer.
get_value(item= N=c1ccn2c(n1)OC1C(O)C(CO)OC12 (stereo not given) , readout=growth) returns -9.72

get_value(item= O=C(/C=C/C12c3ccccc3C(c3ccccc31)C1C(=O)N(c3ccc(Cl)cc3)C(=O)C12)c1ccccn1 (stereo not given) , readout=growth) returns -32.3

get_value(item= CN(C)c1ccc2cc(-c3ccccc3F)c(N)nc2c1 , readout=growth) returns 15.9

get_value(item= C=CCN1C(=O)[C@]2(SC1=S)[C@H](c1cccc(Cl)c1)CN(C)[C@]21C(=O)NC2C=CC(Cl)=C[C@H]21 (stereo not given in full) , readout=growth) returns 55.3

Then there is this compound:
get_value(item= COc1cc2c(=O)n(CCCn3ccnc3)c3c4cc5c(cc4ccc3c2cc1OC)OCO5 , readout=growth) returns -9.42
